Target: UniProt:P13945
Sequence (P13945 whole entry, species assumed): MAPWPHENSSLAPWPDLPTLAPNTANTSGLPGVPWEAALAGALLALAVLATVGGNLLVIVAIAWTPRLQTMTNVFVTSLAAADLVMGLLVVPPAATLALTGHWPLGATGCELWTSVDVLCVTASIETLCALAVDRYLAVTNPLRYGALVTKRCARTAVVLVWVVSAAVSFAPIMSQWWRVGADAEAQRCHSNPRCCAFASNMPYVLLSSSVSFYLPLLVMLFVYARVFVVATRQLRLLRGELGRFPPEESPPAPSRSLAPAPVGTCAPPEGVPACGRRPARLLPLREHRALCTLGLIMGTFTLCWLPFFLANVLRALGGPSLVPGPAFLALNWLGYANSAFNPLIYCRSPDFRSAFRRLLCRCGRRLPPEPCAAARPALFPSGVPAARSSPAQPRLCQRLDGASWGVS
Assay: Homogeneous Time-Resolved Fluorescence (HTRF) cAMP antagonist assay, IC50 determination
Conditions: CHO-K1 cells stably expressing recombinant receptor, isoproterenol at EC90
Reported metric: IC50 (nM)

Guide cases for IC50, answers given:
Molecule	Result value
CNS(=O)(=O)c1cccc(OC[C@@H](O)CNC2COC3(CCN(S(=O)(=O)c4ccccc4OC)CC3)C2)c1 (stereo partly drawn) [Compound 398]	51.3
Cc1cc(S(=O)(=O)N2CCC3(CC2)CC(NC[C@H](O)COc2cccc(S(=O)(=O)N(C)C)c2)CO3)ccc1Br (stereo partly drawn) [Compound 249]	29.5
CNS(=O)(=O)c1cccc(OC[C@@H](O)CNC2COC3(CCN(S(=O)(=O)c4cccc(Oc5ccccc5C(F)(F)F)c4)CC3)C2)c1 (stereo partly drawn) [Compound 170]	50.6

(A) CNS(=O)(=O)c1cccc(OC[C@@H](O)CNC2COC3(CCN(S(=O)(=O)c4ccc5nc[nH]c5c4)CC3)C2)c1 (stereo partly drawn) [Compound 146]
(B) CC(C)(C)NS(=O)(=O)c1cccc(OC[C@@H](O)CNC2COC3(CCN(S(=O)(=O)c4ccc5ccccc5c4)CC3)C2)c1 (stereo partly drawn) [Compound 94]
(C) CNS(=O)(=O)c1cccc(OC[C@@H](O)CNC2COC3(CCN(S(=O)(=O)c4ccc(OC)c(Cl)c4)CC3)C2)c1 (stereo partly drawn) [Compound 207]
Arrange these 3 molecules in increasing order of IC50. Answer format: list of labels, ordered as asked. C, A, B
